The entries below are paired with their reported TGI.
Tested on: TK-10 renal
Assay Overview: NCI tumour cell line growth inhibition, 48 h

{"Compound": "CCCCNC(=O)NNC(=O)c1cc(/C=C/c2cccc([N+](=O)[O-])c2)ncn1", "Units Label": "µM", "Relation Operator": ">", "TGI": 100}
{"Compound": "COC(=O)[C@]1(C)CCC[C@]2(C)[C@H]3CC[C@]4(C(C)C)OO[C@@H](O4)[C@]34O[C@@H]4C[C@H]21", "Units Label": "µM", "Relation Operator": "=", "TGI": 12.2}
{"Compound": "COC(=O)CCC(C)[C@H]1CCC2C3C(C[C@H](OC(C)=O)[C@@]21C)[C@@]1(C)CCC2(C[C@H]1C[C@H]3OC(C)=O)OOC1(CCC(C(C)(C)C)CC1)OO2 (stereo partly specified)", "Units Label": "µM", "Relation Operator": ">", "TGI": 100}
{"Compound": "CN(C)CCn1c(=O)nc2c3c(c([N+](=O)[O-])ccc31)Nc1ccc(O)cc1-2", "Units Label": "µM", "Relation Operator": "=", "TGI": 36}
{"Compound": "C=Cc1ccccc1C1C(C(=O)OCC)=C(C)N=C2OC(C(=O)OC)C(=O)N21 (stereo unspecified)", "Units Label": "µM", "Relation Operator": ">", "TGI": 100}
{"Compound": "c1ccc(-c2nc([P+](c3ccccc3)(c3ccccc3)c3ccccc3)c(N3CCOCC3)o2)cc1", "Units Label": "µM", "Relation Operator": "=", "TGI": 15}
{"Compound": "NC(CCCNCc1ccccc1)C(=O)O (stereo unspecified)", "Units Label": "µM", "Relation Operator": ">", "TGI": 100}
{"Compound": "CC1(C)OC(CCC#N)CN1C(=O)OCc1ccccc1 (stereo unspecified)", "Units Label": "µM", "Relation Operator": ">", "TGI": 100}
{"Compound": "FC(F)(F)c1ccc(C2=N/S(c3ccccc3)=N\\C(c3ccc(C(F)(F)F)cc3)=N/S(c3ccccc3)=N\\2)cc1 (stereo unspecified)", "Units Label": "µM", "Relation Operator": ">", "TGI": 100}
{"Compound": "O=C1CCC[C@]2(CCCC(=O)N2)C1", "Units Label": "µM", "Relation Operator": ">", "TGI": 100}
{"Compound": "O=C(O)c1ccccc1NS(=O)(=O)c1ccc([N+](=O)[O-])cc1", "Units Label": "µM", "Relation Operator": ">", "TGI": 100}
{"Compound": "COc1ccc2nc3n(c2c1)C(c1c(F)cccc1Cl)SC3 (stereo unspecified)", "Units Label": "µM", "Relation Operator": ">", "TGI": 100}
{"Compound": "COc1cccc(-n2ncc3c(N/N=C/c4cccc(F)c4)ncnc32)c1", "Units Label": "µM", "Relation Operator": "=", "TGI": 18.9}
{"Compound": "NCC(O)CSP(=O)(O)O (stereo unspecified)", "Units Label": "µM", "Relation Operator": ">", "TGI": 100}
{"Compound": "CC(C)S(=O)(=O)ON1C(=O)c2ccc(N(C)C)cc2C1=O", "Units Label": "µM", "Relation Operator": "=", "TGI": 37.1}
{"Compound": "O=c1oc2ccccc2c(O)c1/C=N\\c1nc(-c2ccc(O)c(O)c2)cs1", "Units Label": "µM", "Relation Operator": "=", "TGI": 10.7}
{"Compound": "CN(CCCN(C)Cc1ccc(Cl)c(Cl)c1)CCN1CCCC1", "Units Label": "µM", "Relation Operator": ">", "TGI": 82.7}
{"Compound": "COc1ccc(O)c2c(=O)ccccc12", "Units Label": "µM", "Relation Operator": "=", "TGI": 60}
{"Compound": "Nc1ncnc2c1ncn2C1OC(CO)C2OC21 (stereo unspecified)", "Units Label": "µM", "Relation Operator": ">", "TGI": 100}
{"Compound": "Cc1nc(Nc2ccc(Cl)cc2)sc1C(=O)NNC(=O)C(=O)NN", "Units Label": "µM", "Relation Operator": "=", "TGI": 91.7}
{"Compound": "C=C(C)[C@@H]1CC[C@]2(C)[C@H](CC[C@@H]3[C@@H]([C@@](C)(O)CCC=C(C)C)CC[C@]32C)[C@@]1(C)CCC(=O)N1CCN(C)CC1", "Units Label": "µM", "Relation Operator": "=", "TGI": 32.2}
